target: Fatty acid synthase (Homo sapiens, UniProt P49327); test: inhibition of human FAS-TE enzyme activity – biochemical, endpoint fluorescence intensity, uHTS hits, dose response (AID 624327); assay type: functional;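 also: fluorescence from hydrolysis of an O-methyl fluorescein acyl ester substrate by the enzyme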
Sequence (P49327 whole entry): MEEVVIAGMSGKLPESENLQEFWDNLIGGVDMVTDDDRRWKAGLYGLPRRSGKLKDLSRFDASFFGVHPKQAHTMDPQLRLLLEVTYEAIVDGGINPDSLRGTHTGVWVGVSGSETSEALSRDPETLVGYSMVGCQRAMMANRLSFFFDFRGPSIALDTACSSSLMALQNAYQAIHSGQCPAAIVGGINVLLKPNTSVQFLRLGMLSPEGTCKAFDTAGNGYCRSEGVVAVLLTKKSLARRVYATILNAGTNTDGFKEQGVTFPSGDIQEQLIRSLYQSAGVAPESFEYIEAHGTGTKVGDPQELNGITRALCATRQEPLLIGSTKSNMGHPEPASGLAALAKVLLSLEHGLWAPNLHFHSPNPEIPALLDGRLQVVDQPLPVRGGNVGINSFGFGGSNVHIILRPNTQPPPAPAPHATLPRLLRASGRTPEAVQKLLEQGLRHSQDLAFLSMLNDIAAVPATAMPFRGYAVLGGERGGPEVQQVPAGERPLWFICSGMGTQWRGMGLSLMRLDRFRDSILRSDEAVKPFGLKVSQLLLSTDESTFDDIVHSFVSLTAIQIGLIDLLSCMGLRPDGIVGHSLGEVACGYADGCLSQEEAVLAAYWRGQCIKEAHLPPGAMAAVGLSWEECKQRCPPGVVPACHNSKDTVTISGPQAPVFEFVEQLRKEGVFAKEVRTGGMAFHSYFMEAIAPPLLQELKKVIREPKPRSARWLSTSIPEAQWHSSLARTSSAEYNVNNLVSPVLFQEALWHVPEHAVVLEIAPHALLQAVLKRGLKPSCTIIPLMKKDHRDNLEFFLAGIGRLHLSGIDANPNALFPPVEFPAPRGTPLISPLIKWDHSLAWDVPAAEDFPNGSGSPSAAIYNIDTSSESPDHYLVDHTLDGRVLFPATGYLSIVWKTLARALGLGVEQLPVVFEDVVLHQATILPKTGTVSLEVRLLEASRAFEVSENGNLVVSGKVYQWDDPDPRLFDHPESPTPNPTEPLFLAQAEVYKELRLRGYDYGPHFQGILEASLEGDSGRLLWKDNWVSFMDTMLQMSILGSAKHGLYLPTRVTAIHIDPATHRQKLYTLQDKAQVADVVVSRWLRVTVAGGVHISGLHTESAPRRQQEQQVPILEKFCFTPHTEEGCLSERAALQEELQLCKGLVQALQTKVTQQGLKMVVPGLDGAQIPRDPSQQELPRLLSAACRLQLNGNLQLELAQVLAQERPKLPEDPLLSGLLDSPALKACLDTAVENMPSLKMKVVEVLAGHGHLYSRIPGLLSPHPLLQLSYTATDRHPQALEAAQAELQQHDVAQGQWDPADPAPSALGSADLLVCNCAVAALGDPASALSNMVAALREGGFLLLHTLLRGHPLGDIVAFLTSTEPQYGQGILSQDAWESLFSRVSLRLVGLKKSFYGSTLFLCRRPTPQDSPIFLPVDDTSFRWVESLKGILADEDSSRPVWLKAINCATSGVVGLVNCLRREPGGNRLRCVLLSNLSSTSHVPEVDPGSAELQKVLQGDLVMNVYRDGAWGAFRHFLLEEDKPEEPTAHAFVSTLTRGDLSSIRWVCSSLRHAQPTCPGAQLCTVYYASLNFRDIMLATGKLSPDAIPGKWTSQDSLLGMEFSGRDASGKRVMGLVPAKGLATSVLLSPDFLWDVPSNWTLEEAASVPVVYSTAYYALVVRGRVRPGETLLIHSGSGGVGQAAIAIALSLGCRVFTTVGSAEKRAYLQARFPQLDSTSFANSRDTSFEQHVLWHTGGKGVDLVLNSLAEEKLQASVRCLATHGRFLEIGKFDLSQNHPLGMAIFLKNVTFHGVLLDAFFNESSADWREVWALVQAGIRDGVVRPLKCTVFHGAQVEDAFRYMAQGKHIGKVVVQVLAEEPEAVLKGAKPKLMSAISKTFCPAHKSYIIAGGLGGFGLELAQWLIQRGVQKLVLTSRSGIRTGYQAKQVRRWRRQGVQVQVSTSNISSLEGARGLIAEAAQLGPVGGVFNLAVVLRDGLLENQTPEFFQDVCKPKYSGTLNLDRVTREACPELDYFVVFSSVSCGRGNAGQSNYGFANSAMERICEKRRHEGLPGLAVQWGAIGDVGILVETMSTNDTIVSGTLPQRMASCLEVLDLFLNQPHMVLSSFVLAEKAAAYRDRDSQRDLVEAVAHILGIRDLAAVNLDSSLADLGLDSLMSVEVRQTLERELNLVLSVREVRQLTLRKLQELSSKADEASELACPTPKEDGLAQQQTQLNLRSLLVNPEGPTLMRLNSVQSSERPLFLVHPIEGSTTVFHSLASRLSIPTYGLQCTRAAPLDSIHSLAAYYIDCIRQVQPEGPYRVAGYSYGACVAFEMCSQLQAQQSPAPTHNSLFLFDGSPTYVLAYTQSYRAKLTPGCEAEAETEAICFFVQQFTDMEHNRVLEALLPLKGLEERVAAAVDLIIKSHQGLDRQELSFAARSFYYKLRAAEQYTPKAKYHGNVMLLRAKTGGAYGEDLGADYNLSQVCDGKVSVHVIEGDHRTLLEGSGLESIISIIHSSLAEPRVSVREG
Activity calls are given as the source filed them. Rule as the data show it: active = IC50 of 20 µM or less and inactive = more.
test.readout: IC50

The following compounds have reported results that may help.
>>> df
                                   compound                               target_desc    value_measured
0  O=C(COc1cc([N+](=O)[O-])cc2cccnc12)NCCC1=CCCCC1  Fatty acid synthase (Homo sapiens, UniProt P49327)   1.1 µM (active)
1  CCCCCn1c(CN2CCN(c3cccc(Cl)c3)CC2)nc2c1c(=O)n(C)c(=O)n2C  Fatty acid synthase (Homo sapiens, UniProt P49327)  3.96 µM (active)
2  COCCCNC(=O)CC1C[C@H](C(=O)N2CCOCC2)[C@@]2(CCC3CCCC3)c3[nH]c4ccc(OC)cc4c3CCN2C1=O (some centres undefined)  Fatty acid synthase (Homo sapiens, UniProt P49327)  11.5 µM (active)

The recorded IC50 for entry CC(NC(=O)Nc1cccc([N+](=O)[O-])c1)c1ccc2c(c1)OCO2 (centres undefined) equals 2.18 µM (active)
